# target.or.system: SIRT4 (Homo sapiens)
# Construct: 6xHis (followed by human rhinovirus 3C protease site) (N); made in house; host or cells: E. coli BL21(DE3), co-expressed with GroEL and GroES
# Sequence (Q9Y6E7 33-314): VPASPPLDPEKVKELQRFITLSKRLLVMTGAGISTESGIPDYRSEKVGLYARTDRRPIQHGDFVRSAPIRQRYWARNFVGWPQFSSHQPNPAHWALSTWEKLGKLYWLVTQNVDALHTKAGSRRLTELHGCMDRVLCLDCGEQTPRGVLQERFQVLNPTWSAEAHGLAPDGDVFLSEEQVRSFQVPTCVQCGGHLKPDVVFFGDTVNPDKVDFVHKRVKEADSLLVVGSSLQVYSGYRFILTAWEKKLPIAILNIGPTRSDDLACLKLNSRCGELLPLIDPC
# run.description: HPLC-based SIRT4 kinetics assays (steady-state, acyl-modified peptide substrates)
# Format: biochemical
# condition.details: SIRT4 enzyme concentration = 5 μM; NAD 1 mM; 25° C.
Peptide text beside a SMILES is read from it. * marks the point of attachment. ξ: configuration not given here. Biotin = O=C1N[C@H]2[C@H](CS[C@H]2CCCCC(=O)*)N1; Lipoyl(6ξ) = O=C(CCCCC1CCSS1)*
Listed here: items and their measured Km.
State the answer as a number, implicitly in µM.

compound: C[C@H](NC(=O)[C@@H](NC(=O)[C@H](CCC(N)=O)NC(=O)[C@@H](N)CCCCN)[C@@H](C)O)C(=O)N[C@@H](CCCNC(=N)N)C(=O)N[C@@H](CCCCNC(=O)CCCCC1CCSS1)C(=O)N[C@@H](CO)C(=O)N[C@H](C(=O)NCC(=O)NCC(=O)N[C@@H](Cc1c[nH]c2ccccc12)C(=O)N[C@@H](Cc1c[nH]c2ccccc12)C(=O)O)[C@@H](C)O (stereo partly shown) [H3 K9 Lipoyl] (H-KQTARK(Lipoyl(6ξ))STGGWW-OH)
Km / µM: 814

Now consider a different compound.
Quote SIRT4 (Homo sapiens) Km for entry C[C@H](NC(=O)[C@@H](NC(=O)[C@H](CCC(N)=O)NC(=O)[C@@H](N)CCCCN)[C@@H](C)O)C(=O)N[C@@H](CCCNC(=N)N)C(=O)N[C@@H](CCCCNC(=O)CCCC[C@@H]1SC[C@@H]2NC(=O)N[C@@H]21)C(=O)N[C@@H](CO)C(=O)N[C@H](C(=O)NCC(=O)NCC(=O)N[C@@H](Cc1c[nH]c2ccccc12)C(=O)N[C@@H](Cc1c[nH]c2ccccc12)C(=O)O)[C@@H](C)O [H3 K9 Biotinyl] (H-KQTARK(Biotin)STGGWW-OH) . 719

Data origin: patent US11726088B2
